# tested-target: NS3h_1b (Hepatitis C virus genotype 1b)
# Construct: truncated C-terminally His-tagged NS3 proteins lacking the N-terminal protease, called NS3h; His-tag (C)
# Sequence (Q9WMX2 1192-1657): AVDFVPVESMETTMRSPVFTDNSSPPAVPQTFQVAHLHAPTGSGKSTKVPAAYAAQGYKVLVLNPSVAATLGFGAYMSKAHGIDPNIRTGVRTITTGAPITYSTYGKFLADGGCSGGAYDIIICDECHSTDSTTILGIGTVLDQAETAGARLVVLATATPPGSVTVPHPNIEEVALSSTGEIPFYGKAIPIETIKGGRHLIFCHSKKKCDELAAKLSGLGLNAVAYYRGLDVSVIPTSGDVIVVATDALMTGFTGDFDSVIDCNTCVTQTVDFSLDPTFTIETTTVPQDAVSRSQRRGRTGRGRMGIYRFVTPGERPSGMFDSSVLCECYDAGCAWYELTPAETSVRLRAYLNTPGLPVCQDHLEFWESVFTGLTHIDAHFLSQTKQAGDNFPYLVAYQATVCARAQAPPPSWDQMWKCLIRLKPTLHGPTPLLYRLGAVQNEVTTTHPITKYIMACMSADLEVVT
# experiment-summary: ATPase assay without RNA
// assign Met if IC50 falls strictly below 70 µM, else Not met (ties count as Not met)

1) Cc1ccc2nc(-c3ccc4nc(-c5ccc(NC(=O)c6ccc7ccccc7c6)cc5)sc4c3)sc2c1S(=O)(=O)O; Met
2) Cc1ccc2nc(-c3ccc4nc(-c5ccc(NC(=O)c6ccc7nc(-c8ccc(N)cc8)sc7c6)cc5)sc4c3)sc2c1S(=O)(=O)O; Not met

# check: IC50 < 70 µM for Cc1ccc2nc(-c3ccc4nc(-c5ccc(NC(=O)c6ccc(F)cc6)cc5)sc4c3)sc2c1S(=O)(=O)O.N
Met

###

# experiment-summary: Absorbance and fluorescence properties
# Format: physicochemical
measure-name: Fluorescence Emmax (nm)
Reply numerically in nm, unit not repeated.

Examples with their reported Fluorescence Emmax follow.
1. Cc1ccc2nc(-c3ccc4nc(-c5ccc(NC(=O)c6ccc7ccccc7c6)cc5)sc4c3)sc2c1S(=O)(=O)O; 496
2. Cc1ccc2nc(-c3ccc4nc(-c5ccc(NC(=O)c6ccc(C(C)(C)C)cc6)cc5)sc4c3)sc2c1S(=O)(=O)O; 502
3. Cc1ccc2nc(-c3ccc4nc(-c5ccc(NC(=O)c6ccc(F)cc6)cc5)sc4c3)sc2c1S(=O)(=O)O.N; 496

Please look at the following compound next.
What the record says about Cc1ccc2nc(-c3ccc4nc(-c5ccc6nc(-c7ccc8nc(-c9ccc(N)cc9)sc8c7)sc6c5)sc4c3)sc2c1S(=O)(=O)O : Fluorescence Emmax is 467

###

Collected Int.* (Ratio) (Interference) values appear next to each entry.
# tested-target: HCV NS3 helicase NS3h_1b(con1) (Hepatitis C virus genotype 1b, UniProt Q9WMX2)
# Construct: truncated C-terminally His-tagged NS3 proteins lacking the N-terminal protease, called NS3h; His-tag (C); made in house
# experiment-summary: MBHA screen of NCI mechanistic set library at 20 μM (percent inhibition, compound interference)
# Format: biochemical
# condition-description: compounds at 20 μM, MBHA with DNA substrate; assay interference calculated with Equation 2
Reply numerically in Ratio, unit not repeated.

1. C=C1C(=O)OC2/C=C(/CO)[C@@H](OC(C)=O)C[C@H](O)/C(C)=C\[C@@H](OC(=O)[C@@H](C)CC)[C@@H]12 (stereo partly drawn); 0.95
2. NC1=C(Br)C(=O)c2ncccc2C1=O; 1.14

What the record says about N[C@@H](CN(O)N=O)C(=O)O : Int.* (Ratio) (Interference) is 0.89

What the record says about CN(Cc1cnc2nc(N)nc(N)c2n1)c1ccc(C(=O)NC(CCC(=O)O)C(=O)O)c2ccccc12 (stereo not drawn) : Int.* (Ratio) (Interference) is 0.91

What the record says about COc1ccc2nc3cc([N+](=O)[O-])ccc3c(NNc3ccccc3)c2c1 : Int.* (Ratio) (Interference) is 1.01

What the record says about Cc1ccccc1OCC(COC(=O)Nc1ccccc1)OC(=O)Nc1ccccc1 (stereo not drawn) : Int.* (Ratio) (Interference) is 0.91

What the record says about Cc1cc(N(CC(C)Br)CC(C)Br)ccc1N=Nc1ccccc1C(=O)O (stereo not drawn) : Int.* (Ratio) (Interference) is 0.94

What the record says about Cc1ccc(S(=O)(=O)ON=C2CC(c3ccccc3)N(C)C(c3ccccc3)C2)cc1 (stereo not drawn) : Int.* (Ratio) (Interference) is 0.92

What the record says about CC(C)(C)CC(C)(C)NCC(O)COc1ccc(C(C)(C)c2ccc(OCC(O)CNC(C)(C)CC(C)(C)C)cc2)cc1.Cl (stereo not drawn) : Int.* (Ratio) (Interference) is 0.53

What the record says about Fc1cccc(F)c1C1SCc2nc3ccccc3n21 (stereo not drawn) : Int.* (Ratio) (Interference) is 1.01

What the record says about COc1ccc(S(=O)(=O)N/N=C/C(=O)O)cc1 : Int.* (Ratio) (Interference) is 1.05

What the record says about Cc1ccc([N+](=O)[O-])cc1NC(=O)c1cccc([N+](=O)[O-])c1O : Int.* (Ratio) (Interference) is 0.98

What the record says about CC(=O)c1sc2c(c1OC(=O)c1ccc(Cl)cc1Cl)c(=O)n(-c1ccccc1)c(=S)n2-c1ccccc1 : Int.* (Ratio) (Interference) is 0.90

What the record says about O=c1ncccn1C1OC(CO)C(O)C1F (stereo not drawn) : Int.* (Ratio) (Interference) is 1.05

What the record says about CCCc1c(Cl)nc(Cl)nc1Cl : Int.* (Ratio) (Interference) is 0.91

What the record says about COc1ccc(CCN(C)CCCC(C#N)(c2ccc(OC)c(OC)c2)C(C)C)cc1OC.Cl (stereo not drawn) : Int.* (Ratio) (Interference) is 0.98

What the record says about O=[N+]([O-])c1ccc2c(c1)/C(=N/N=C1c3ccccc3Cc3ccccc31)c1cc([N+](=O)[O-])cc([N+](=O)[O-])c1-2 : Int.* (Ratio) (Interference) is 1.06

What the record says about CCOC(=O)[C@H](CC(C)C)NC(=O)C(Cc1ccc(N(CCCl)CCCl)cc1)NC(C)=O (stereo partly drawn) : Int.* (Ratio) (Interference) is 1.00

What the record says about Cc1cc(NCCCCCCCNc2cc(C)nc3cc(N)ccc23)c2ccc(N)cc2n1 : Int.* (Ratio) (Interference) is 0.26

What the record says about N#CCCN(c1ccc(C=O)cc1)S(=O)(=O)c1ccccc1 : Int.* (Ratio) (Interference) is 1.01

###

Collected pIC50 values appear next to each entry.
# tested-target: HCV NS3 helicase NS3h_1b(con1) (Hepatitis C virus genotype 1b, UniProt Q9WMX2)
# Construct: truncated C-terminally His-tagged NS3 proteins lacking the N-terminal protease, called NS3h; His-tag (C); made in house
# experiment-summary: biochemical
# Assay type: biochemical, hepatitis C virus genotype 1b(con1)
# condition-description: standard HCV helicase MBHA (Table 9); read-out: DNA Unwinding IC50
# reply with the number alone; pIC50 is -log10 of concentration in mol/L

Examples with their reported pIC50 follow.
1) Cc1ccc2nc(-c3ccc4nc(-c5ccc(NC(=O)c6cccc(Cl)c6)cc5)sc4c3)sc2c1S(=O)(=O)O [Compound 17]; 5.52
2) Cc1ccc2nc(-c3ccc(NC(=O)c4ccc(NC(=O)c5ccc(NC(=O)OCC6c7ccccc7-c7ccccc76)cc5)cc4)cc3)sc2c1S(=O)(=O)O.N [Compound 51]; 5.52
3) Cc1ccc2nc(-c3ccc4nc(-c5ccc(NC(=O)c6ccc(N(C)C)cc6)cc5)sc4c3)sc2c1S(=O)(=O)O [Compound 14]; 4.96

So the reported pIC50 for Cc1ccc2nc(-c3ccc4nc(-c5ccc(NC(=O)c6ccc(Br)cc6)cc5)sc4c3)sc2c1S(=O)(=O)O [Compound 15] , on HCV NS3 helicase NS3h_1b(con1) (Hepatitis C virus genotype 1b, UniProt Q9WMX2), turned out to be 5.30

So the reported pIC50 for Cc1ccc2nc(-c3ccc4nc(-c5ccc(NC(=O)c6ccc7nc(-c8ccc(N)cc8)sc7c6)cc5)sc4c3)sc2c1S(=O)(=O)O [Compound 35] , on HCV NS3 helicase NS3h_1b(con1) (Hepatitis C virus genotype 1b, UniProt Q9WMX2), turned out to be 5.22

So the reported pIC50 for Cc1ccc(NC(=O)Nc2ccc(-c3nc4ccc(-c5nc6ccc(C)c(S(=O)(=O)O)c6s5)cc4s3)cc2)cc1 [Compound 28] , on HCV NS3 helicase NS3h_1b(con1) (Hepatitis C virus genotype 1b, UniProt Q9WMX2), turned out to be 5.30

###

Collected IC50 values appear next to each entry.
# tested-target: NS3h_2a(JFH1) (Hepatitis C virus genotype 2a, UniProt Q99IB8)
# Construct: truncated C-terminally His-tagged NS3 proteins lacking the N-terminal protease, called NS3h; His-tag (C); made in house
# Sequence (Q99IB8 1196-1661): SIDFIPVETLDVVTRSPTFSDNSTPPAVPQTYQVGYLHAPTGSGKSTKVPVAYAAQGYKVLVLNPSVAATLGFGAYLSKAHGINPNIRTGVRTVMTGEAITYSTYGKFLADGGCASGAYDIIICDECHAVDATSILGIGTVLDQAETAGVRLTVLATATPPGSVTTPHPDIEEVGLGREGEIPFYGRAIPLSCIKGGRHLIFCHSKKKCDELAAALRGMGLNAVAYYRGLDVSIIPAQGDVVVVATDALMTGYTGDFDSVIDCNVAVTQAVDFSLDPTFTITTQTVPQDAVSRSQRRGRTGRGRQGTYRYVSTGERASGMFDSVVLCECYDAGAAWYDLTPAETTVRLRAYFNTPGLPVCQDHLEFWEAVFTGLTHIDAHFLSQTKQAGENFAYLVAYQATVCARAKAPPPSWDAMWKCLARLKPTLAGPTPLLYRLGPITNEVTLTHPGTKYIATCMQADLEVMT
# experiment-summary: MBHA, DNA substrate, genotype 2a helicase
# Format: biochemical, hepatitis C virus genotype 2a(JFH1)
# condition-description: Target Potency MBHA (IC50 avg., μM) 2a (JFH1), genotype 2a (JFH1)
Reply numerically in µM, unit not repeated.

1. Cc1ccc2nc(-c3ccc4nc(-c5ccc(NC(=O)c6ccc(Cl)cc6)cc5)sc4c3)sc2c1S(=O)(=O)O; 2.3

Please look at the following compound next.
What the record says about COc1ccc(C(=O)Nc2ccc(-c3nc4ccc(-c5nc6ccc(C)c(S(=O)(=O)O)c6s5)cc4s3)cc2)cc1 : IC50 is 5.4

###

# tested-target: HCV NS3 helicase NS3h_1b(con1) (Hepatitis C virus genotype 1b)
# Construct: truncated C-terminally His-tagged NS3 proteins lacking the N-terminal protease, called NS3h; His-tag (C); made in house
# experiment-summary: MBHA screen of NCI mechanistic set library at 20 μM (percent inhibition, compound interference)
# Assay type: biochemical
# condition-description: compounds at 20 μM, MBHA with DNA substrate; assay interference calculated with Equation 2
measure-name: Int.* (Ratio) (Interference)
Reply numerically in Ratio, unit not repeated.

Examples with their reported Int.* (Ratio) (Interference) follow.
1) OC(CBr)C(O)C(O)C(O)CBr (stereo not drawn); 1.02
2) O=C(O)/C=C\C(=O)O.[N-]=[N+]=Nc1ccc2c(c1)Sc1ccccc1N2CCCCN1CCN(Cc2ccc(C(=O)c3ccccc3)cc2)CC1; 0.46
3) O=C(c1nc2ccc(Cl)cc2[nH]c1=O)C(O)c1ccc2c(c1)OCO2 (stereo not drawn); 1.05
4) COc1cc2c3c(n(C)c(=O)c2cc1OC)-c1cc2c(cc1C3=O)OCO2; 0.70
5) Cc1ccccc1NC(=O)C(=O)C(c1cnc2ccc([N+](=O)[O-])cc2n1)[N+](=O)[O-] (stereo not drawn); 0.94
6) COc1ccc(/C=C2\CCc3ccccc3C2=O)cc1OC; 0.93
7) Cc1c(C(=O)C/C(=N/NC(=O)CC#N)C(N)=O)[n+](=O)c2ccccc2n1[O-]; 0.91
8) Cn1c(=O)[nH]c2nncnc2c1=O; 1.02
9) Cc1c2cnccc2c(C)c2c1c1ccccc1n2CCOC(=O)c1ccccc1; 0.88
10) CCC12C[N+]3([O-])CCc4c([nH]c5ccccc45)C(C(=O)OC)(c4cc5c(cc4OC)N(C)C4C(O)(C(=O)OC)C(OC(C)=O)C6(CC)C=CCN7CCC54C76)CC(C3)C1O2 (stereo not drawn); 0.97

So the reported Int.* (Ratio) (Interference) for Cc1ccc([S+](c2ccccc2)c2cc(C)ccc2C)cc1.O=C(OC(C(=O)[O-])C(OC(=O)c1ccccc1)C(=O)O)c1ccccc1 (stereo not drawn) , on HCV NS3 helicase NS3h_1b(con1) (Hepatitis C virus genotype 1b), turned out to be 0.92

So the reported Int.* (Ratio) (Interference) for O=S(=O)(O)c1cc(N=Nc2cc(S(=O)(=O)O)c3ccccc3c2O)ccc1/C=C/c1ccc(N=Nc2cc(S(=O)(=O)O)c3ccccc3c2O)cc1S(=O)(=O)O.[Na+] , on HCV NS3 helicase NS3h_1b(con1) (Hepatitis C virus genotype 1b), turned out to be 0.90

So the reported Int.* (Ratio) (Interference) for CC(C)N.CC(C)N.[Cl-].[Cl-].[OH-].[OH-].[Pt] , on HCV NS3 helicase NS3h_1b(con1) (Hepatitis C virus genotype 1b), turned out to be 1.02

So the reported Int.* (Ratio) (Interference) for COC1CC(OC2CCC3(C=O)C4CCC5(C)C(C6=CC(=O)OC6)CCC5(O)C4CCC3(O)C2)OC(C)C1OC1OC(CO)C(O)C(O)C1O (stereo not drawn) , on HCV NS3 helicase NS3h_1b(con1) (Hepatitis C virus genotype 1b), turned out to be 0.95

So the reported Int.* (Ratio) (Interference) for C=C1C(C)C2C(Cc3ccccc3)NC(=O)C23C(OC(C)=O)/C=C/C(C)(O)CC(C)C/C=C/C3C1O (stereo not drawn) , on HCV NS3 helicase NS3h_1b(con1) (Hepatitis C virus genotype 1b), turned out to be 1.03
